Please provide measured MIC for the entries that follow.
# System: Staphylococcus aureus
# assay: Antibacterial activity against Staphylococcus aureus ATCC 29213 assessed as inhibition of bacterial growth incubated for 18 to 24 hrs by broth microdilution method
# Assay type: functional
Use µg/mL as the unit, but write only the number.

Sure, the documented MIC for C[C@@H](OC(=O)/C=C/c1ccccc1O)[C@H]1C(=O)N/C1=C\C(=O)OCc1ccccc1 is 2

Sure, the documented MIC for C[C@@H](OC(=O)c1ccc(O)cc1)[C@H]1C(=O)N/C1=C\C(=O)OCc1ccccc1 is 2

Sure, the documented MIC for C[C@@H](OC(=O)c1cccc2c1OCO2)[C@H]1C(=O)N/C1=C\C(=O)OCc1ccccc1 is 16

Sure, the documented MIC for COc1cc(/C=C/C(=O)O[C@H](C)[C@H]2C(=O)N/C2=C\C(=O)OCc2ccccc2)ccc1O is 4

Sure, the documented MIC for C[C@@H](OC(=O)c1ccc(O)c(O)c1)[C@H]1C(=O)N/C1=C\C(=O)OCc1ccccc1 is 16

Sure, the documented MIC for CO/N=C(\C(=O)N[C@@H]1C(=O)N2C(C(=O)O)=C(COC(N)=O)CS[C@H]12)c1ccco1 [CEFUROXIME] is 2

Sure, the documented MIC for C[C@@H](OC(=O)/C=C/c1ccc(O)cc1)[C@H]1C(=O)N/C1=C\C(=O)OCc1ccccc1 is 8

Sure, the documented MIC for C[C@@H](OC(=O)c1ccc2c(c1)OCO2)[C@H]1C(=O)N/C1=C\C(=O)OCc1ccccc1 is 2
